These measurements were taken from the supplement of paper PMC9112550.

system: Escherichia coli TOP10; experiment: shrunken log2 fold change of peptide-encoding DNA abundance (4.5 h post-induction vs induction); higher = less antimicrobial activity (less host growth inhibition); details: time post-induction: 4.5 h; library: site-saturation at positions 5, 18, 19, 20
The following sequences are shown together with reported shrunken log2 fold change values.

biopolymer_sequence | shrunken log2 fold change
RRIRPRPPRLPRPRPRPRHQPRP | 0.31
RRIRVRPPRLPRPRPRPQLDPRP | 0.269
RRIRQRPPRLPRPRPRPIEPPRP | -0.0381
RRIRRRPPRLPRPRPRPEIEPRP | 0.216
RRIRIRPPRLPRPRPRPARPPRP | 0.474
RRIRERPPRLPRPRPRPHPNPRP | -0.0522
RRIRGRPPRLPRPRPRPAITPRP | 0.721
RRIRRRPPRLPRPRPRPMQDPRP | 0.452
RRIRGRPPRLPRPRPRPRFQPRP | 0.158
RRIRWRPPRLPRPRPRPRHSPRP | 0.286
RRIRMRPPRLPRPRPRPYHTPRP | -1.11
RRIRTRPPRLPRPRPRPCEPPRP | -0.0796
RRIRGRPPRLPRPRPRPDKWPRP | 0.243
RRIRYRPPRLPRPRPRPPHEPRP | -0.125
RRIRARPPRLPRPRPRPPPEPRP | 1.24

* * *

Let's look at some sequences and their measured shrunken log2 fold change.
system: Escherichia coli TOP10; assay: shrunken log2 fold change of peptide-encoding DNA abundance (4.5 h post-induction vs induction); higher = less antimicrobial activity (less host growth inhibition); conditions: time post-induction: 4.5 h; library: site-saturation at positions 5, 18, 19, 20

biopolymer_sequence | shrunken log2 fold change
RRIRRRPPRLPRPRPRPTLEPRP | 0.607
RRIRKRPPRLPRPRPRPRGPPRP | 1.23
RRIRVRPPRLPRPRPRPMQNPRP | 0.111
RRIRKRPPRLPRPRPRPLYMPRP | -0.514
RRIRRRPPRLPRPRPRPCELPRP | -0.0595
RRIRDRPPRLPRPRPRPRTNPRP | -0.179
RRIRMRPPRLPRPRPRPEMWPRP | 2.4
RRIRWRPPRLPRPRPRPDCFPRP | 1.32
RRIRDRPPRLPRPRPRPWQYPRP | -0.482
RRIRGRPPRLPRPRPRPVRVPRP | 0.856
RRIRRRPPRLPRPRPRPLVHPRP | 0.223
RRIRARPPRLPRPRPRPNLSPRP | -0.0536
RRIRVRPPRLPRPRPRPENLPRP | -0.111
RRIRERPPRLPRPRPRPDSQPRP | -0.0262
RRIRVRPPRLPRPRPRPGTDPRP | -0.117

* * *

system: Escherichia coli TOP10; assay: shrunken log2 fold change of peptide-encoding DNA abundance (4.5 h post-induction vs induction); higher = less antimicrobial activity (less host growth inhibition); settings: time post-induction: 4.5 h; library: site-saturation at positions 5, 18, 19, 20
result_type: shrunken log2 fold change

biopolymer_sequence | result_type | value_measured
RRIRNRPPRLPRPRPRPCSWPRP | shrunken log2 fold change | -0.117
RRIRKRPPRLPRPRPRPSMAPRP | shrunken log2 fold change | 0.0554
RRIRFRPPRLPRPRPRPRPGPRP | shrunken log2 fold change | 0.837
RRIRKRPPRLPRPRPRPLEDPRP | shrunken log2 fold change | -0.0129
RRIRRRPPRLPRPRPRPRFCPRP | shrunken log2 fold change | 0.421
RRIRARPPRLPRPRPRPNGIPRP | shrunken log2 fold change | -0.109
RRIRMRPPRLPRPRPRPYLDPRP | shrunken log2 fold change | 0.107
RRIRTRPPRLPRPRPRPSPEPRP | shrunken log2 fold change | 0.0171

* * *

system: Escherichia coli TOP10; test: shrunken log2 fold change of peptide-encoding DNA abundance (4.5 h post-induction vs induction); higher = less antimicrobial activity (less host growth inhibition); conditions: time post-induction: 4.5 h; library: site-saturation at positions 5, 18, 19, 20
Entries annotated with measured shrunken log2 fold change

biopolymer_sequence | test_system | shrunken log2 fold change
RRIRHRPPRLPRPRPRPLNDPRP | Escherichia coli TOP10 | 0.00159
RRIRCRPPRLPRPRPRPTFFPRP | Escherichia coli TOP10 | 0.114
RRIRDRPPRLPRPRPRPCYGPRP | Escherichia coli TOP10 | -0.0515
RRIRKRPPRLPRPRPRPCANPRP | Escherichia coli TOP10 | 0.232
RRIRHRPPRLPRPRPRPQESPRP | Escherichia coli TOP10 | 0.00355
RRIRNRPPRLPRPRPRPLSTPRP | Escherichia coli TOP10 | 0.0462
RRIRERPPRLPRPRPRPPWKPRP | Escherichia coli TOP10 | 0.0356
RRIRSRPPRLPRPRPRPEPTPRP | Escherichia coli TOP10 | 0.467
RRIRYRPPRLPRPRPRPRTDPRP | Escherichia coli TOP10 | -0.0428
RRIRHRPPRLPRPRPRPRVDPRP | Escherichia coli TOP10 | 0.0681
RRIRSRPPRLPRPRPRPFFWPRP | Escherichia coli TOP10 | 0.485
RRIRCRPPRLPRPRPRPISHPRP | Escherichia coli TOP10 | -0.486
RRIRMRPPRLPRPRPRPNWRPRP | Escherichia coli TOP10 | 0.0183
RRIRHRPPRLPRPRPRPSVYPRP | Escherichia coli TOP10 | -0.47
RRIRKRPPRLPRPRPRPYAMPRP | Escherichia coli TOP10 | 0.202

* * *

tested on: Escherichia coli TOP10; assay: shrunken log2 fold change of peptide-encoding DNA abundance (4.5 h post-induction vs induction); higher = less antimicrobial activity (less host growth inhibition); conditions: time post-induction: 4.5 h; library: site-saturation at positions 5, 18, 19, 20
# cutoff -0.1 applies to shrunken log2 fold change; >= gives Met, < gives Not met

biopolymer_sequence | assigned_label
RRIRWRPPRLPRPRPRPIKGPRP | Not met
RRIRLRPPRLPRPRPRPFQQPRP | Met
RRIRPRPPRLPRPRPRPDDIPRP | Met
RRIRIRPPRLPRPRPRPFPSPRP | Not met
RRIRNRPPRLPRPRPRPGIWPRP | Met
RRIRFRPPRLPRPRPRPLVCPRP | Not met
RRIRRRPPRLPRPRPRPPKPPRP | Met
RRIRHRPPRLPRPRPRPLPGPRP | Met
RRIRRRPPRLPRPRPRPRTRPRP | Met
RRIRSRPPRLPRPRPRPMYPPRP | Not met
RRIRIRPPRLPRPRPRPWFHPRP | Not met
RRIRWRPPRLPRPRPRPGLIPRP | Met
RRIRHRPPRLPRPRPRPTLMPRP | Met
RRIRDRPPRLPRPRPRPWTTPRP | Met
RRIRMRPPRLPRPRPRPHVMPRP | Not met
RRIRTRPPRLPRPRPRPCICPRP | Not met
RRIRLRPPRLPRPRPRPEYSPRP | Not met
RRIRARPPRLPRPRPRPAPDPRP | Met
RRIRFRPPRLPRPRPRPQYMPRP | Not met
RRIRRRPPRLPRPRPRPFVCPRP | Met
RRIRMRPPRLPRPRPRPNRNPRP | Not met
RRIRMRPPRLPRPRPRPCYDPRP | Met
RRIRSRPPRLPRPRPRPRELPRP | Met
RRIRYRPPRLPRPRPRPAKQPRP | Not met
RRIRQRPPRLPRPRPRPHTHPRP | Not met
RRIRARPPRLPRPRPRPYKMPRP | Not met
RRIRGRPPRLPRPRPRPRSNPRP | Met
RRIRMRPPRLPRPRPRPQNRPRP | Met
RRIRYRPPRLPRPRPRPNGEPRP | Met
RRIRARPPRLPRPRPRPLATPRP | Met
RRIRWRPPRLPRPRPRPHKIPRP | Met

* * *

tested on: Escherichia coli TOP10; assay: shrunken log2 fold change of peptide-encoding DNA abundance (4.5 h post-induction vs induction); higher = less antimicrobial activity (less host growth inhibition); settings: time post-induction: 4.5 h; library: site-saturation at positions 5, 18, 19, 20;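 further: peptides expressed intracellularly from a pBAD plasmid library in pooled LB shake-flask culture, induced with 0.3% L-arabinose, DNA abundance read by NGS, three biological replicates, DESeq2 with apeglm shrinkage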
Label rule, in plain words: shrunken log2 fold change of 0.07 and up is t, under 0.07 is f.

biopolymer_sequence | test_system | assigned_label
RRIRKRPPRLPRPRPRPIYDPRP | Escherichia coli TOP10 | f
RRIRERPPRLPRPRPRPPNPPRP | Escherichia coli TOP10 | t
RRIRGRPPRLPRPRPRPSEFPRP | Escherichia coli TOP10 | t
RRIRCRPPRLPRPRPRPNHCPRP | Escherichia coli TOP10 | f
RRIRHRPPRLPRPRPRPQLAPRP | Escherichia coli TOP10 | t
RRIRCRPPRLPRPRPRPDIHPRP | Escherichia coli TOP10 | f
RRIRVRPPRLPRPRPRPTDWPRP | Escherichia coli TOP10 | t
RRIRGRPPRLPRPRPRPRYEPRP | Escherichia coli TOP10 | t
RRIRKRPPRLPRPRPRPKGFPRP | Escherichia coli TOP10 | f
RRIRKRPPRLPRPRPRPYMEPRP | Escherichia coli TOP10 | f
RRIRFRPPRLPRPRPRPQPAPRP | Escherichia coli TOP10 | t
RRIRDRPPRLPRPRPRPQDTPRP | Escherichia coli TOP10 | f
RRIRYRPPRLPRPRPRPKPDPRP | Escherichia coli TOP10 | f
RRIRGRPPRLPRPRPRPWNCPRP | Escherichia coli TOP10 | f
